# testedTarget: histone deacetylase, subtype 1 (HDAC1) (Homo sapiens)
# Construct: Flag; made in house
# testProtocol: HDAC1-Flag assay (in vitro deacetylation assay)
# Type: biochemical
# assaySetup: Table 1, benzothiophene backbone; concentration for 50% inhibition of deacetylation; substrate at Km; unit inferred, text gives nm; read-out: HDAC Inhibition
Catalogue of molecules with associated IC50
Numbers only; they are read as nM.

Dear colleague, I am looking for the recorded IC50 of the following molecule: O=C(NCCC(c1ccccc1)c1ccccc1)c1ccc2sc(C(=O)NO)cc2c1
428

Fill in: IC50 of O=C(NO)c1cc2cc(CNCC3CCCCC3)ccc2s1 is ___
207

May I ask what IC50 has been recorded for O=C(CCc1ccccc1)Nc1ccc2sc(C(=O)NO)cc2c1 ?
61

New cases:
I would be grateful if you could share the reported IC50 for O=C(NO)c1cc2cc(CNCCc3ccccc3)ccc2s1 .
203

Given COc1ccc(CC(=O)Nc2ccc3cc(C(=O)NO)sc3c2)cc1OC , state its recorded IC50.
35

* * *

# testedTarget: histone deacetylase, subtype 1 (HDAC1) (Homo sapiens, UniProt Q13547)
# Construct: Flag; made in house
# Sequence (Q13547 whole entry): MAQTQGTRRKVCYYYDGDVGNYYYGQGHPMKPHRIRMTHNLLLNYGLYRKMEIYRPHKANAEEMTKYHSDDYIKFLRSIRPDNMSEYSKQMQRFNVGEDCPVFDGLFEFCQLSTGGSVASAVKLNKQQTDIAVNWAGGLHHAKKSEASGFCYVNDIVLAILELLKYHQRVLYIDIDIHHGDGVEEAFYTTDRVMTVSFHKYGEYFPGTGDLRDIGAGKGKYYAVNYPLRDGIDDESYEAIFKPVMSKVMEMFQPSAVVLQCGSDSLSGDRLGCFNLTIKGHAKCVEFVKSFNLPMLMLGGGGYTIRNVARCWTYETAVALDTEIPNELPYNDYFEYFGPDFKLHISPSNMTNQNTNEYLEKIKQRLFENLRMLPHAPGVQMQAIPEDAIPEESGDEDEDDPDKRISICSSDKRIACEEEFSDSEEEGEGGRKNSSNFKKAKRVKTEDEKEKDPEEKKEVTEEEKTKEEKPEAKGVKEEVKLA
# testProtocol: HDAC1-Flag assay (in vitro deacetylation assay)
# Format: biochemical
# assaySetup: Table 1, benzothiophene backbone; concentration for 50% inhibition of deacetylation; substrate at Km; unit inferred, text gives nm; read-out: HDAC Inhibition
parameter: IC50 (nM)
Just the number in nM, nothing appended.

// below: answered molecules
// lookup IC50 | system=histone deacetylase, subtype 1 (HDAC1) (Homo sapiens, UniProt Q13547) | key= O=C(NCc1ccccc1)c1ccc2cc(C(=O)NO)sc2c1
53

Give the reported IC50 for O=C(NO)c1cc2ccc(C(=O)N3CCN(c4ccccc4)CC3)cc2s1 (system: histone deacetylase, subtype 1 (HDAC1) (Homo sapiens, UniProt Q13547)).
176

Form field - read-out: IC50; system: histone deacetylase, subtype 1 (HDAC1) (Homo sapiens, UniProt Q13547); submitted item: COc1ccc(CN(Cc2ccc3cc(C(=O)NO)sc3c2)C2CCOCC2)cc1
76

I'm curious: which IC50 was measured for COc1ccccc1CNCc1ccc2sc(C(=O)NO)cc2c1 tested on histone deacetylase, subtype 1 (HDAC1) (Homo sapiens, UniProt Q13547)?
75.5

Short answer please: IC50, histone deacetylase, subtype 1 (HDAC1) (Homo sapiens, UniProt Q13547), entry COc1ccc(CC(=O)Nc2ccc3sc(C(=O)NO)cc3c2)cc1OC
76

---
Hello, I am looking for reported IC50 with histone deacetylase, subtype 1 (HDAC1) (Homo sapiens, UniProt Q13547) for O=C(CN1CCCCC1)Nc1ccc2cc(C(=O)NO)sc2c1 . Could you help?
38

Give the reported IC50 for COc1ccc(CNCc2ccc3sc(C(=O)NO)cc3c2)cc1 (system: histone deacetylase, subtype 1 (HDAC1) (Homo sapiens, UniProt Q13547)).
110

Lab note: need IC50 with histone deacetylase, subtype 1 (HDAC1) (Homo sapiens, UniProt Q13547) for entry O=C(CN(CCc1ccccc1)Cc1ccccc1)Nc1ccc2cc(C(=O)NO)sc2c1 , please look it up.
206

* * *

# testedTarget: histone deacetylase, subtype 1 (HDAC1) (Homo sapiens, UniProt Q13547)
# Construct: Flag; made in house
# testProtocol: HDAC1-Flag assay (in vitro deacetylation assay)
# Type: biochemical
# assaySetup: Table 1, benzothiophene backbone; concentration for 50% inhibition of deacetylation; substrate at Km; unit inferred, text gives nm; read-out: HDAC Inhibition
parameter: IC50 (nM)
Expressed in nM, but write only the number.

# annotated cases, reported IC50 shown
Fill in the blank: the reported IC50 of COC(=O)c1ccc2cc(C(=O)NO)sc2c1 [Compound 23] is ____.
627

Please give the measured IC50 for this compound: CN(O)C(=O)c1cc2ccc(NC(=O)Cc3ccccc3)cc2s1 [Compound 102]
14400

Query (compound): CCOC(=O)Nc1ccc2cc(C(=O)NO)sc2c1 [Compound 31] ; field requested: IC50
350

Look up IC50 for this compound: O=C(NCc1ccc(Cl)cc1)c1ccc2cc(C(=O)NO)sc2c1 [Compound 176]
126

Query: IC50; subject: O=C(NO)c1cc2cc(CNCc3nc4ccccc4[nH]3)ccc2s1 [Compound 141]
116

Form field: reported IC50 of O=C(Nc1ccc2sc(C(=O)NO)cc2c1)c1ccc2ccccc2n1 [Compound 38]
444

Need IC50 of COC(=O)c1ccc2sc(C(=O)NO)cc2c1 [Compound 45] , thanks.
737

For the compound shown here, O=C(CN(Cc1ccccc1)Cc1ccccc1)Nc1ccc2cc(C(=O)NO)sc2c1 [Compound 93] , give the reported IC50.
316

Fill in the blank: the reported IC50 of O=C(CN(CC(=O)Nc1ccccc1)C(=O)c1ccc2sc(C(=O)NO)cc2c1)Nc1ccccc1 [Compound 179] is ____.
102

More entries:
Returns the measured IC50 for the input compound. Input: O=C(Nc1ccc2cc(C(=O)NO)sc2c1)c1ccccc1 [Compound 5]
204

* * *

# testedTarget: histone deacetylase, subtype 1 (HDAC1) (Homo sapiens)
# Construct: Flag; made in house
# testProtocol: HDAC1-Flag assay (in vitro deacetylation assay)
# Format: biochemical
# assaySetup: Table 1, benzothiophene backbone; concentration for 50% inhibition of deacetylation; substrate at Km; unit inferred, text gives nm; read-out: HDAC Inhibition
parameter: log10(IC50) (log10 of the value in nM)
A value of 2 here means IC50 of 100 in nM, since values are log10.

Consider the reported log10(IC50) for these compounds:
Entry O=C(NC(c1ccccc1)c1ccccc1)c1ccc2cc(C(=O)NO)sc2c1 [Compound 132] : reported log10(IC50) = ?
2.45

Request the reported log10(IC50) associated with COc1ccc(CC(=O)Nc2ccc3cc(C(=O)NO)sc3c2)cc1 [Compound 89]
1.29

Suppose we examine the compound O=C(NO)c1cc2cc(CNC3CCN(Cc4ccccc4)CC3)ccc2s1 [Compound 146] ; what log10(IC50) value has been reported?
2.72

***
Record request: log10(IC50) value, item O=C(NO)c1cc2cc(CNc3cccc(OCc4ccccc4)c3)ccc2s1 [Compound 165]
2.43

Value lookup for log10(IC50); key = O=C(NCCc1ccccc1)Nc1ccc2cc(C(=O)NO)sc2c1 [Compound 32]
1.95

Which log10(IC50) is listed for O=C(CN1CCC(Cc2ccccc2)CC1)Nc1ccc2cc(C(=O)NO)sc2c1 [Compound 90] ?
2.00

Entry under review: O=C(NO)c1cc2ccc(NS(=O)(=O)c3ccccc3)cc2s1 [Compound 10] . Reported log10(IC50)?
1.67

Quick one: log10(IC50) for Cc1ccc(S(=O)(=O)Nc2ccc3cc(C(=O)NO)sc3c2)cc1 [Compound 43] ?
1.78

Name the reported log10(IC50) value associated with the compound COc1ccccc1CC(=O)Nc1ccc2cc(C(=O)NO)sc2c1 [Compound 52]
1.30

* * *

Listed below: IC50 values for each entry.
# testedTarget: histone deacetylase, subtype 1 (HDAC1) (Homo sapiens)
# Construct: Flag; made in house
# testProtocol: HDAC1-Flag assay (in vitro deacetylation assay)
# Type: biochemical
# assaySetup: Table 1, benzothiophene backbone; concentration for 50% inhibition of deacetylation; substrate at Km; unit inferred, text gives nm; read-out: HDAC Inhibition
Use µM as the unit, but write only the number.

Here's what some known entries look like.
Fill in: IC50 of O=C(NC1CCc2ccccc21)c1ccc2cc(C(=O)NO)sc2c1 (stereo not drawn) [Compound 138] is ___
0.922

I would be grateful if you could share the reported IC50 for O=C(NO)c1cc2cc(CNCCCc3ccccc3)ccc2s1 [Compound 154] .
0.163

Look up IC50 for this molecule: O=C(CN(CC(=O)Nc1ccccc1)c1ccc2sc(C(=O)NO)cc2c1)Nc1ccccc1 [Compound 177]
0.0573

Recorded IC50 of O=C(NO)c1cc2cc(CNCC(c3ccccc3)c3ccccc3)ccc2s1 [Compound 152] , please.
0.415

Quick one: IC50 of O=C(Cc1cccnc1)Nc1ccc2cc(C(=O)NO)sc2c1 [Compound 110] ?
0.061

Reported IC50, molecule O=C(NCc1ccc(Cl)cc1)c1ccc2sc(C(=O)NO)cc2c1 [Compound 171] : ____
0.0635

***
Item O=C(NCCc1ccccn1)c1ccc2cc(C(=O)NO)sc2c1 [Compound 134] has what recorded IC50?
0.146

May I ask what IC50 has been recorded for COc1ccccc1CNCc1ccc2cc(C(=O)NO)sc2c1 [Compound 185] ?
0.0485

Consider the molecule shown here: O=C(NO)c1cc2cc(NS(=O)(=O)c3ccccc3)ccc2s1 [Compound 26] What is its recorded IC50?
0.166

* * *

# testedTarget: histone deacetylase, subtype 1 (HDAC1) (Homo sapiens, UniProt Q13547)
# Construct: Flag; made in house
# testProtocol: HDAC1-Flag assay (in vitro deacetylation assay)
# Assay type: biochemical
# assaySetup: Table 1, benzothiophene backbone; concentration for 50% inhibition of deacetylation; substrate at Km; unit inferred, text gives nm; read-out: HDAC Inhibition
pIC50: −log10 of the molar value.
Give Y when the value for pIC50 is at least 7. Give N when it is less.

Has O=C(NO)c1cc2cc(N(Cc3ccccc3)Cc3ccccc3)ccc2s1 [Compound 20] a recorded pIC50 greater than or equal to 7?
N

Reported pIC50 reaches at least 7 for O=C(NCCc1ccccc1)c1ccc2cc(C(=O)NO)sc2c1 [Compound 161] ?
Y

Decide: pIC50 of COc1ccc(CNC(=O)c2ccc3sc(C(=O)NO)cc3c2)cc1 [Compound 168] >= 7?
Y

I'd appreciate it if you could say whether O=C(NO)c1cc2cc(CNCCCCc3ccccc3)ccc2s1 [Compound 156] has pIC50 at least equal to 7.
N

Test whether the compound O=C(Cc1ccccc1)Nc1ccc2cc(C(=O)NO)sc2c1 [Compound 6] records pIC50 of 7 or higher.
Y

Data origin, for the record: patent US7935724B2
